- systemTested: UniProt:Q02928
- Sequence (Q02928 5-519): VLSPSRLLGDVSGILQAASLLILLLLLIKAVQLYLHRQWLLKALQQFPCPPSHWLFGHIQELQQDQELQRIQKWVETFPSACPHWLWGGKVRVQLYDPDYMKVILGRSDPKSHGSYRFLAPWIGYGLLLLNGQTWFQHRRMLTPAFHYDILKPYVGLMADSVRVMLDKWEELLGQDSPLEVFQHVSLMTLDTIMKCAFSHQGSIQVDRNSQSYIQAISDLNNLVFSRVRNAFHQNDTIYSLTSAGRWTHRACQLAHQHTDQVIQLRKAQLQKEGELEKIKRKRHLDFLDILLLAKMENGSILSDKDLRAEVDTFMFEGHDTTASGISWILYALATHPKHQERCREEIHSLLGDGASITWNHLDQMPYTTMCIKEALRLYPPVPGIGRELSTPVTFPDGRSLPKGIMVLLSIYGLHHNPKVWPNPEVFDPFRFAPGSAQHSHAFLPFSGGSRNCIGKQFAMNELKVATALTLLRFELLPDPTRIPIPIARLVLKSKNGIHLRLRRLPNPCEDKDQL
- protocolDetails: Inhibition test against 20-HETE producing enzyme CYP4A11 (luciferine derivative, luminescence)
- Assay type: biochemical
- condition: E. coli membrane fraction expressing human CYP4A11, 60 μM luciferine derivative, room temperature 60 minutes
readoutName: pIC50
In plain terms, pIC50 is the concentration in mol/L turned into minus its base-10 logarithm.

Consider the following illustrative entries.
CN(C)C(=O)Cc1cccc(COc2ccc(-c3ccn[nH]3)nc2)c1: 6.70
Cc1cc(OCC23CCC(C(=O)O)(CC2)CC3)cnc1-c1ccn[nH]1: 7.42
O=C(O)C1CCc2ccc(COc3ccc(-c4ccn[nH]4)nc3)cc2O1 (stereo not drawn): 7.21
CNS(=O)(=O)c1cccc(COc2ccc(-c3ccn[nH]3)nc2)c1: 7.44
Oc1cc(COc2ccc(-c3ccn[nH]3)nc2)ccc1F: 6.51
O=C(O)C1(c2cccc(COc3ccc(-c4ccn[nH]4)nc3)c2)CCOCC1: 6.89
O=C(O)Cc1cccc(COc2ccc(-c3ccn[nH]3)nc2)n1: 6.12
O=C(O)C1CCC(COc2ccc(-c3ccn[nH]3)nc2)CC1 (stereo not drawn) [Example 1-49]: 6.85

query: For `CC(C)(C(=O)O)c1cccc(S(=O)(=O)CCCCOc2ccc(-c3ccn[nH]3)nc2)c1` , write its pIC50.
result: 6.25

query: Please list pIC50 recorded for the molecule `O=C(O)Cc1cccc(COc2ccc(-c3cnco3)nc2)c1`
result: 8.00

query: Identify measured pIC50 corresponding to `O=C(O)C1(CCCCCCCCOc2ccc(-c3ccn[nH]3)nc2)CCOCC1`
result: 6.72

query: Hello, please tell me recorded pIC50 for this one: `CC(=O)N1CCC(CCCCCCCCOc2ccc(-c3ccn[nH]3)nc2)(C(=O)O)CC1`
result: 6.11

query: Name the recorded pIC50 of the molecule listed here: O=C(O)C1CC(CCOc2ccc(-c3ccn[nH]3)nc2)C1 (stereo not drawn)
result: 7.37

query: Consider the molecule O=C(O)C1CCCC(c2cccc(COc3ccc(-c4ccn[nH]4)nc3)c2)C1 (stereo not drawn) . State its measured pIC50.
result: 7.55

query: Give a short answer stating reported pIC50 for `O=C(O)c1cnn(CCCOc2ccc(-c3ccn[nH]3)nc2)c1` .
result: 6.16

query: Answer with the recorded pIC50 of `CC(C)(C(=O)O)n1ccc(CCCCOc2ccc(-c3ccn[nH]3)nc2)n1` only.
result: 7.17

query: In one line, give reported pIC50 of the entry `O=C(O)c1cccc(OCCOc2ccc(-c3ccn[nH]3)nc2)c1` .
result: 6.51
